biological target: T1, HLA-DR DRB1*0101 (human); assay: radioligand inhibition, purified HLA-DR; conditions: remark: other sources report otherwise
T1 chain 1: not shown
T1 chain 2: not shown
pIC50: −log10 of the molar value.
Readout name: pIC50

LAALCRWGLLLALLP [Her/neu.3] :: 5.69
GCQVVQGNLELTYLP [Her/neu.52] :: 5.59
MRKIVATWMLEVCEE [Cyclin D1.56] :: 6.12

[a] INGIPQQHTQVLFIA [CEA.629 peptide 9019.0139]
[b] APTISPLNTSYRSGE [CEA.239 peptide 9919.0121]
[c] DANLLNDRVLRAMLK [Cyclin D1.19 peptide 9019.0146]
[d] EALLESSLRQAQQNM [Cyclin D1.252]
**Query** Given 4 binders, produce a descending ranking by pIC50. Present the labels in the sequence the task asks for.
**Result** a, c, b, d
(a: 6.17, c: 5.83, b: 5.61, d: 5.09)
